Tested on: ATXN2-luc
Test: Secondary assays, Bright-Glo luciferase in H2 and S2 cells
Format: cell-based
Conditions: ATXN2-luc, Bright-Glo; H2 and S2 values used as replicates; 12 doses, 96-well plates; read-out: Mean IC50
// boundary case: IC50 equal to 1000 nM maps to false (0); strictly smaller maps to true (1)

Recorded results for 3 compounds are shown here.
| QUERY_SMILES | LABEL |
| --- | --- |
| CCc1c(O)cc(O)c(C(=O)c2ccc(OCCN3CCOCC3)c(OC)c2)c1CC(=O)N(CCOC)CCOC | true (1) |
| Cn1cc(-c2cnn3c(N)c(Br)c([C@H]4CCCNC4)nc23)cn1 | true (1) |
| Cc1ccc(-c2ncn(-c3ccc(Nc4nccc(-c5cccc(N6CCOCC6)c5)n4)cc3)n2)cn1 | false (0) |

Query string: For this compound, is IC50 lower than 1000 nM? CC(C)c1cc(-c2n[nH]c(=O)n2-c2ccc3c(ccn3C)c2)c(O)cc1O
Result string: true (1)

Query string: Likewise for Cc1cnc(NC(=O)CN2CCN(c3ccccn3)CC2)s1 ?
Result string: false (0)

Query string: Likewise for CN(c1ccccc1CNc1nc(Nc2ccc3c(c2)CC(=O)N3)ncc1C(F)(F)F)S(C)(=O)=O ?
Result string: false (0)

Query string: Likewise for CC1(C)CC(=O)c2c(C(F)(F)F)nn(-c3ccc(C(N)=O)c(N[C@H]4CC[C@H](O)CC4)c3)c2C1 ?
Result string: true (1)

Query string: Likewise for S=C(NCCCN1CCOCC1)N1CCN(c2nc(-c3ccccc3)cs2)CC1 ?
Result string: false (0)

Query string: Likewise for CC1(C)CC(=O)c2c(C(F)(F)F)nn(-c3ccc(C(N)=O)c(N[C@H]4CC[C@H](OC(=O)CN)CC4)c3)c2C1 ?
Result string: true (1)

Query string: Likewise for C[C@@H](Oc1ccc2[nH]nc(/C=C/c3cnn(CCO)c3)c2c1)c1c(Cl)cncc1Cl ?
Result string: false (0)

Query string: Likewise for Clc1ccc(C[n+]2cc(-c3ccccc3)n3c2CCCCC3)c(Cl)c1.[Br-] ?
Result string: false (0)
